meta.source: ChEMBL document CHEMBL2346531

assay-summary: Displacement of [3H]DTG from sigma 2 receptor in Wistar Hannover rat liver membrane by competition binding assay
Assay type: cell membranes
pKi: −log10 of the molar value.
Mark NOT MET for pKi values under 7, and MET for everything at or above.

Answered examples (3):
compound	label-class
COc1ccc2c(c1)CCCC2CCCN1C(C)(C)CCCC1(C)C (stereo not drawn)	NOT MET
COc1ccc2c(CCCCN3CCCCC3(C)C)cccc2c1	MET
COc1ccc2c(CCCN3C(C)(C)CCCC3(C)C)cccc2c1	NOT MET

IN: Confirm if pKi reported for the compound COc1ccc2c(c1)CCCC2CCCCN1[C@H](C)CCC[C@@H]1C (stereo partly drawn) is 7 or above.
OUT: MET

IN: Test whether the compound Cc1ccccc1NC(=N)Nc1ccccc1C [DITOLYLGUANIDINE] records pKi of 7 or higher.
OUT: MET

IN: Hi team, for COc1ccc2c(CCCCN3[C@H](C)CCC[C@@H]3C)cccc2c1.Cl , is the recorded pKi at or above 7?
OUT: MET

IN: Could you please find out whether COc1ccc2c(CCCN3[C@H](C)CCC[C@@H]3C)cccc2c1 has pKi that meets 7 or exceeds it?
OUT: MET

IN: Please indicate if the recorded pKi for COc1ccc2c(c1)CCCC2CCCCN1CCCCC1(C)C (stereo not drawn) meets or exceeds 7.
OUT: MET
